tested on: SF-295 CNS; assay: NCI tumour cell line growth inhibition, 48 h; in the data active = GI50 below about 0.43 µM; inactive = the rest
Outcomes: Yes (active), No (inactive)

compound: COC[C@H](NC(=O)c1cnc(C)s1)C(=O)N[C@@H](COC)C(=O)N[C@@H](Cc1ccccc1)C(=O)[C@@]1(C)CO1
target.under.test: SF-295 CNS
label.value: No
//
compound: CC1=C([Te]c2ccccc2)C(=O)c2ccccc2C1=O
target.under.test: SF-295 CNS
label.value: Yes
//
compound: COc1ccc(Nc2nc(NCCNc3ccnc4cc(Cl)ccc34)nc(N3CCOCC3)n2)cc1
target.under.test: SF-295 CNS
label.value: No
//
compound: CCC1=C(c2ccc(OC)cc2)C(C)(C)Oc2c1ccc(O)c2CN1CCCC1
target.under.test: SF-295 CNS
label.value: No
//
compound: COc1cc(CCC[P+](c2ccccc2)(c2ccccc2)c2ccccc2)c(OC)c2c1OCO2
target.under.test: SF-295 CNS
label.value: No
//
compound: NCCCCC(NC(=O)C(N)CCCN=C(N)N)C(=O)NC(CCCCN)C(=O)NC(CCCN=C(N)N)C(=O)NC(CCCN=C(N)N)C(=O)NC(CCC(N)=O)C(=O)NC(CCCN=C(N)N)C(=O)NC(CCCN=C(N)N)C(=O)NC(CCCN=C(N)N)C(=O)NCC(=O)NCC(=O)O (stereo not drawn)
target.under.test: SF-295 CNS
label.value: No
//
compound: CCCc1nn(C)c2c(=O)[nH]c(-c3cc(S(=O)(=O)N4CCN(C)CC4)ccc3OCC)nc12
target.under.test: SF-295 CNS
label.value: No
//
compound: CC(=O)O.CN1[CH-]N(Cc2ccc(C#N)cc2)c2ccccc21.[Ag+]
target.under.test: SF-295 CNS
label.value: No
